target: UniProt:Q01827; experiment: [3H]Dopamine ([3H]DA) uptake assay, vesicular preparation; type: biochemical; conditions: [3H]DA uptake, rat; read-out: VMAT2 (rat) Inhibition: Mean Ki ± Standard Deviation
Ki under 30 nM gets TRUE, anything at or over 30 nM gets FALSE.

Compound: CC(Cc1ccc(N)cc1)NCCCc1ccc(F)cc1 (stereo not shown) [Compound 112]
Qualitative Label: TRUE
//
Compound: CC(Cc1ccc(C(F)(F)F)cc1)NCCCc1ccc(O)cc1 (stereo not shown)
Qualitative Label: TRUE
//
Compound: CC(Cc1ccncc1)NCCCc1ccc(Br)cc1 (stereo not shown)
Qualitative Label: FALSE
//
Compound: CC(Cc1ccccc1)NCCCc1ccc(I)cc1 (stereo not shown) [Compound 213]
Qualitative Label: TRUE
//
Compound: FCC(Cc1ccc(F)cc1)NCCCc1ccc(Cl)cc1 (stereo not shown)
Qualitative Label: FALSE
//
Compound: FCC(Cc1ccc(-c2cccnc2)cc1)NCCCc1ccc(F)cc1 (stereo not shown)
Qualitative Label: TRUE
//
Compound: Fc1ccc(CCCNC(Cc2ccc(F)cc2)C(F)F)cc1 (stereo not shown)
Qualitative Label: FALSE
//
Compound: CC(Cc1ccc(F)cc1)NCCCn1ccnc1 (stereo not shown)
Qualitative Label: FALSE
//
Compound: CC(Cc1ccc(F)cc1)NCCCc1ccc([S+](C)[O-])cc1 (stereo not shown)
Qualitative Label: FALSE
//
Compound: Nc1ccc(CCCNC(CF)Cc2ccc(F)cc2)cc1 (stereo not shown)
Qualitative Label: FALSE
//
Compound: CC(Cc1ccc(F)c(F)c1)NCCCc1ccncc1 (stereo not shown)
Qualitative Label: FALSE
//
Compound: CC(Cc1ccc(NC=O)cc1)NCCCc1ccc(F)cc1 (stereo not shown) [Compound 89]
Qualitative Label: TRUE
//
Compound: CC(Cc1ccc(N)cc1)NCCCc1ccc(F)cc1 (stereo not shown) [Compound 109]
Qualitative Label: TRUE
//
Compound: CC(Cc1ccncc1)NCCCc1ccc(O)cc1 (stereo not shown)
Qualitative Label: FALSE
//
Compound: CC(Cc1ccc(F)cc1)NCCCc1ccncc1 (stereo not shown)
Qualitative Label: FALSE
//
Compound: CC(C)C(Cc1ccc(F)cc1)NCCCc1ccc(Br)cc1 (stereo not shown)
Qualitative Label: FALSE
//
Compound: CC(Cc1ccc(NC=O)cc1)NCCCc1ccc(F)cc1 (stereo not shown) [Compound 87]
Qualitative Label: TRUE
//
Compound: CC(Cc1ccc(-c2cncnc2)cc1)NCCCc1ccc(Cl)cc1 (stereo not shown)
Qualitative Label: TRUE
//
Compound: CC(Cc1ccc(F)cc1)NCCCc1ccc(N)cc1 (stereo not shown)
Qualitative Label: FALSE
//
Compound: CC(Cc1ccc(F)cc1)NCCCc1ccc(Br)cc1 (stereo not shown) [Compound 145]
Qualitative Label: TRUE
//
Compound: CC(Cc1ccc([N+](=O)[O-])cc1)NCCCc1ccc(Cl)cc1 (stereo not shown)
Qualitative Label: TRUE
//
Compound: FCC(Cc1ccc(F)cc1)NCCCc1ccccc1 (stereo not shown)
Qualitative Label: FALSE
//
Compound: CC(Cc1ccccc1)NCCCc1ccc(-c2cccs2)cc1 (stereo not shown)
Qualitative Label: FALSE
//
Compound: CC(Cc1ccc([N+](=O)[O-])cc1)NCCCc1ccc(Br)cc1 (stereo not shown)
Qualitative Label: TRUE
//
Compound: FCC(Cc1ccc(Br)cc1)NCCCc1ccc(F)cc1 (stereo not shown)
Qualitative Label: FALSE
//
Compound: CC(Cc1ccccc1)NCCCc1ccc(O)cc1 (stereo not shown)
Qualitative Label: TRUE
//
Compound: CC(Cc1ccc(F)cc1)NCCCc1ccc([N+](=O)[O-])cc1 (stereo not shown)
Qualitative Label: TRUE
//
Compound: CC(Cc1ccc(F)cc1)NCCCc1ccc(NC2CCC2)cc1 (stereo not shown)
Qualitative Label: FALSE
//
Compound: CC(Cc1ccc(C(F)(F)F)cc1)NCCCc1ccncc1 (stereo not shown) [Compound 164]
Qualitative Label: FALSE
//
Compound: CC(Cc1ccc(Br)cc1)NCCCc1ccc(Cl)cc1 (stereo not shown)
Qualitative Label: TRUE
//
Compound: CC(Cc1ccc([N+](=O)[O-])cc1)NCCCc1ccc(F)cc1 (stereo not shown) [Compound 120]
Qualitative Label: TRUE
//
Compound: CC(Cc1ccc(F)c(F)c1)NCCCc1ccc(N)cc1 (stereo not shown)
Qualitative Label: FALSE
//
Compound: CC(=O)Nc1ccc(CCCNC(C)Cc2ccc(F)cc2)cc1 (stereo not shown)
Qualitative Label: FALSE

* * *

Listed here are compounds together with their documented pKi.
molecular target: VMAT2 (Rattus norvegicus (Rat)); assay: [3H]Dopamine ([3H]DA) uptake assay, vesicular preparation; format: biochemical; details: rat striatal synaptic vesicles; read-out: [3H]DA uptake (Ki) VMAT2
pKi: −log10 of the molar value.
Result Type: pKi

Compound: COc1ccc(CCNC(C)CCc2ccc(OC)cc2)cc1 (stereo not drawn)
Meas Value: 7.22
//
Compound: CC(Cc1ccc(Br)cc1)NCCOc1ccccc1 (stereo not drawn)
Meas Value: 7.89
//
Compound: C[C@@H](Cc1ccccc1)NCCCc1ccccc1
Meas Value: 7.19
//
Compound: COc1ccc(CCC(C)NCCc2ccc(Br)cc2)cc1 (stereo not drawn)
Meas Value: 8.00
//
Compound: COc1ccc(CCCNC(C)Cc2ccc(O)cc2)cc1 (stereo not drawn)
Meas Value: 7.14
//
Compound: CC(Cc1ccc(O)cc1)NCCc1ccccc1 (stereo not drawn)
Meas Value: 7.33
//
Compound: CC(Cc1ccccc1)N(C)CCCc1ccccc1 (stereo not drawn)
Meas Value: 7.02
//
Compound: CC(Cc1ccccc1)NCCCc1ccccc1 (stereo not drawn)
Meas Value: 8.15
//
Compound: COc1ccc(CCCNC(C)Cc2ccc([N+](=O)[O-])cc2)cc1 (stereo not drawn)
Meas Value: 8.10
//
Compound: CC(CCc1ccccc1)NCCc1ccccc1 (stereo not drawn)
Meas Value: 7.30
//
Compound: CC(CCc1ccccc1)NCCCc1ccccc1 (stereo not drawn)
Meas Value: 7.30
//
Compound: COc1ccc(CCCNC(C)CCc2ccccc2)cc1 (stereo not drawn)
Meas Value: 7.59
//
Compound: CC(Cc1ccc([N+](=O)[O-])cc1)NCCc1ccccc1 (stereo not drawn)
Meas Value: 7.22
//
Compound: CC(Cc1ccc(N)cc1)NCCc1ccccc1 (stereo not drawn)
Meas Value: 6.68
//
Compound: CC(Cc1ccccc1)NCCc1ccc(O)cc1 (stereo not drawn)
Meas Value: 6.92
//
Compound: COc1ccc(CC(C)NCCCc2ccccc2)cc1OC (stereo not drawn)
Meas Value: 6.85
//
Compound: COc1ccc(CC(C)NCCCCc2ccccc2)cc1OC (stereo not drawn)
Meas Value: 7.54
//
Compound: C[C@H](Cc1ccccc1)NCCCc1ccccc1
Meas Value: 8.22
//
Compound: COc1ccc(CCCNC(C)Cc2ccccc2)cc1 (stereo not drawn)
Meas Value: 7.85
//
Compound: COc1ccc(CCCNC(C)Cc2ccc(Br)cc2)cc1 (stereo not drawn)
Meas Value: 7.92
//
Compound: COc1ccc(CC(C)NCCc2ccccc2)cc1 (stereo not drawn)
Meas Value: 7.13
//
Compound: CC(Cc1ccc(Br)cc1)NCCCCc1ccccc1 (stereo not drawn)
Meas Value: 8.52
//
Compound: CC(Cc1ccccc1)NCCOc1ccccc1 (stereo not drawn)
Meas Value: 7.23
//
Compound: COc1ccc(CCC(C)NCCCc2ccccc2)cc1 (stereo not drawn)
Meas Value: 7.52
//
Compound: CC(Cc1ccc(Br)cc1)NCCc1ccccc1 (stereo not drawn)
Meas Value: 7.48
//
Compound: CC(Cc1ccc(F)cc1)NCCCc1ccccc1 (stereo not drawn)
Meas Value: 8.00
//
Compound: COc1ccc(CCCNC(C)Cc2ccc(OC)cc2)cc1 (stereo not drawn)
Meas Value: 7.96
//
Compound: COc1ccc(CCCNC(C)Cc2ccc(F)cc2)cc1 (stereo not drawn)
Meas Value: 7.77
//
Compound: CC(Cc1ccc([N+](=O)[O-])cc1)NCCCc1ccccc1 (stereo not drawn)
Meas Value: 7.89
//
Compound: CC(Cc1ccccc1)N(C)CCc1ccccc1 (stereo not drawn)
Meas Value: 6.29
//
Compound: CC(CCc1ccccc1)N(C)CCCc1ccccc1 (stereo not drawn)
Meas Value: 6.44
//
Compound: CC(Cc1ccccc1)NCCc1ccc(OCc2ccccc2)c(OCc2ccccc2)c1 (stereo not drawn)
Meas Value: 6.92
//
Compound: CC(Cc1ccc(F)cc1)NCCc1ccccc1 (stereo not drawn)
Meas Value: 7.16
//
Compound: CC(Cc1ccccc1)NCCCCCc1ccccc1 (stereo not drawn)
Meas Value: 7.85
//
Compound: CC(Cc1ccc(N)cc1)NCCCc1ccccc1 (stereo not drawn)
Meas Value: 7.44
//
Compound: CC(CCc1ccccc1)N(C)CCc1ccccc1 (stereo not drawn)
Meas Value: 7.08
//
Compound: COc1ccc(CC(C)NCCCc2ccccc2)cc1 (stereo not drawn)
Meas Value: 7.66
//
Compound: COc1ccc(CCC(C)NCCc2ccccc2)cc1 (stereo not drawn)
Meas Value: 7.21
//
Compound: CC(Cc1ccccc1)NCCc1ccc(O)c(O)c1 (stereo not drawn)
Meas Value: 7.04

* * *

Listed here are molecules together with their documented Ki.
molecular target: hERG channel (Homo sapiens (Human), UniProt Q12809); experiment: [3H]Dofetilide binding assay, HEK-293 cell membrane preparation; settings: [3H]dofetilide, HEK-293 cell membranes; read-out: hERG Binding: Mean Ki ± Standard Deviation
Sequence (Q12809 whole entry): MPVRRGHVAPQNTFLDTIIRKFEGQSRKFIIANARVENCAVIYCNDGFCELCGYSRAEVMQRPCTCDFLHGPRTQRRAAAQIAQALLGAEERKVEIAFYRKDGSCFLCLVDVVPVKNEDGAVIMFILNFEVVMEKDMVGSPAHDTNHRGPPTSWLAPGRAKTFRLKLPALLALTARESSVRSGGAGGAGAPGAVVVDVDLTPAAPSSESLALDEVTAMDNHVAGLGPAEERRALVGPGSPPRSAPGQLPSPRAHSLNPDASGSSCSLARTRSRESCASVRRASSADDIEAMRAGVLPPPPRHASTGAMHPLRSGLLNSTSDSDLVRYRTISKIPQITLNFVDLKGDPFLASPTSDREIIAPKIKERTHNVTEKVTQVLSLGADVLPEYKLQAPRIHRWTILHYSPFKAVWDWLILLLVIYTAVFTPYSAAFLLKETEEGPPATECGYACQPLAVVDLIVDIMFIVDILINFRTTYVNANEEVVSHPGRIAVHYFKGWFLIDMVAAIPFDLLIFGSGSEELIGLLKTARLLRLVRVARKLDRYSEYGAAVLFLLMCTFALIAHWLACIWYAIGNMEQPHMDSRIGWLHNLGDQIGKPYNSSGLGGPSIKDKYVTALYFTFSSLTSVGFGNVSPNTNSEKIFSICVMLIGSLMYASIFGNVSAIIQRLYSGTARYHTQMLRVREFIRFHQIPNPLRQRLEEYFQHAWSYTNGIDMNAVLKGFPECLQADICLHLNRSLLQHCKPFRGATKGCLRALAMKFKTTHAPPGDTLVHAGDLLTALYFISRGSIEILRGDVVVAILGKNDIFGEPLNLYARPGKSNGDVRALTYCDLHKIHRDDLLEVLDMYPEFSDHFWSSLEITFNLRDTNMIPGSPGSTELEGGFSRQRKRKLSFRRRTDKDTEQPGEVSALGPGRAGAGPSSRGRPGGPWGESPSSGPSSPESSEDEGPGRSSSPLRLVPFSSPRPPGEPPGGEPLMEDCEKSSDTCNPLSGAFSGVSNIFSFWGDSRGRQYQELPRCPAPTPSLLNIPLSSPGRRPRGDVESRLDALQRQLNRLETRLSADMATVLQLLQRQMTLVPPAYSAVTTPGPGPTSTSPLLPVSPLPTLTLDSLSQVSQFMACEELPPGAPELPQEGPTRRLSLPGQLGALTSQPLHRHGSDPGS

Molecule: CC(Cc1ccc(NC=O)cc1)N(C=O)CCCc1ccc(F)cc1 (centres unmarked)
Unit Info: nM
Ki: 831
--
Molecule: CC(Cc1ccc(Br)cc1)NCCCc1ccc(F)cc1 (centres unmarked)
Unit Info: nM
Ki: 242
--
Molecule: FCC(Cc1ccc(-c2cncnc2)cc1)NCCCc1ccc(F)cc1 (centres unmarked)
Unit Info: nM
Ki: 633
--
Molecule: CC(Cc1ccc(F)cc1)NCCCc1ccnc2ccccc12 (centres unmarked)
Unit Info: nM
Ki: 2950
--
Molecule: CC(Cc1ccccc1)NCCCc1ccc(I)cc1 (centres unmarked) [Compound 215]
Unit Info: nM
Ki: 3040
--
Molecule: CC(Cc1ccc(F)cc1)NCCCc1ccc(NC=O)cc1 (centres unmarked)
Unit Info: nM
Ki: 2600
--
Molecule: CC(Cc1ccc(F)c(F)c1)NCCCc1ccncc1 (centres unmarked)
Unit Info: nM
Ki: 4070
--
Molecule: FCC(Cc1ccc(Br)cc1)NCCCc1ccc(F)cc1 (centres unmarked)
Unit Info: nM
Ki: 1130
